Origin of the recorded values: ChEMBL document CHEMBL1146354

Tested on: HT-1080
test: Cytotoxicity against human HT1080 cells by SRB assay
Format: functional, cell-based
Entries annotated with measured log10 IC50
readout: log10 IC50 (log10 of the value in µM)

CC(COc1ccc2c3c(oc2c1)C(=O)c1ccccc1C3=O)N(C)C (stereo unspecified) : -0.47
CC(COc1cc2oc3c(c2cc1Cl)C(=O)c1ccccc1C3=O)N(C)C (stereo unspecified) : -0.19
CCN(CC)CCOc1cc2oc3c(c2cc1Cl)C(=O)c1ccccc1C3=O : 0.44
CC(CN(C)C)Oc1cc2oc3c(c2cc1Cl)C(=O)c1cccnc1C3=O (stereo unspecified) : -1.00
CC(C)N(CCOc1ccc2c3c(oc2c1)C(=O)c1ncccc1C3=O)C(C)C : -0.74
CCN(CC)CCOc1ccc2c3c(oc2c1)C(=O)c1ccccc1C3=O : 0.34

----------
Species on record: Homo sapiens
test: Inhibition of human topoisomerase 2-mediated KDNA decatenation activity at 5 uM after 10 mins relative to control
Hi, to clarify the labels: met covers inhibition from 70% upward, not met covers anything below 70%.

CCN(CC)CCOc1cc2oc3c(c2cc1Cl)C(=O)c1ccccc1C3=O : not met
CC(COc1ccc2c3c(oc2c1)C(=O)c1ccccc1C3=O)N(C)C (stereo not drawn) : met
CC(CN(C)C)Oc1ccc2c3c(oc2c1)C(=O)c1ncccc1C3=O (stereo not drawn) : not met
CC(CN(C)C)Oc1ccc2c3c(oc2c1)C(=O)c1ccccc1C3=O (stereo not drawn) : met
CCN(CC)CCOc1cc2oc3c(c2cc1Cl)C(=O)c1cccnc1C3=O : not met
CC(CN(C)C)Oc1cc2oc3c(c2cc1Cl)C(=O)c1cccnc1C3=O (stereo not drawn) : not met
CC(C)N(CCOc1cc2oc3c(c2cc1Cl)C(=O)c1ccccc1C3=O)C(C)C : not met
CC(CN(C)C)Oc1cc2oc3c(c2cc1Cl)C(=O)c1ccccc1C3=O (stereo not drawn) : met
CC(C)N(CCOc1cc2oc3c(c2cc1Cl)C(=O)c1cccnc1C3=O)C(C)C : not met
CCN(CC)CCOc1ccc2c3c(oc2c1)C(=O)c1ccccc1C3=O : met
CC(C)N(CCOc1ccc2c3c(oc2c1)C(=O)c1ccccc1C3=O)C(C)C : not met
